- SYSTEM TESTED: human GLP-1 receptor (Homo sapiens, UniProt P43220)
- Construct: expressed in transfected cells
- Sequence (P43220 24-463): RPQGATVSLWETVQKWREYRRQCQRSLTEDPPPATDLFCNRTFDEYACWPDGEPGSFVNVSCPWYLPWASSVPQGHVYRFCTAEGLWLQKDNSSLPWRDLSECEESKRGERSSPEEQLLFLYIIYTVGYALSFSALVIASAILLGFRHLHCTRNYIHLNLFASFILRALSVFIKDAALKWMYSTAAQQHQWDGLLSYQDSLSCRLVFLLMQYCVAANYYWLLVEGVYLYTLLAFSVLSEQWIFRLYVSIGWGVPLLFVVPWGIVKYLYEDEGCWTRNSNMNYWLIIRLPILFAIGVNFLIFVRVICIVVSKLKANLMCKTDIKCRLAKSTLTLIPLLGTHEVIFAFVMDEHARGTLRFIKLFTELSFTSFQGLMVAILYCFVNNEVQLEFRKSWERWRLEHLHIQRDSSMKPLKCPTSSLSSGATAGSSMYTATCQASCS
- TEST NAME: GLP-1R cAMP Assay
- Assay type: cell-based
- EXPERIMENTAL CONDITIONS: cAMP accumulation in CHO cells stably overexpressing the human GLP-1 receptor; 30 min treatment; HitHunter cAMP kit; read-out: EC50
pEC50: −log10 of the molar value.
Consider the following molecules; for each one, report its pEC50.

Consider the reported pEC50 for these molecules:
>>> result("CCn1cncc1Cn1c(CN2CCN(C(=O)c3cccc(Cc4ccc(C)cc4Cl)c3)CC2)nc2ccc(C(=O)O)cc21")
"6.30 to 7.30"
>>> result("CCn1cncc1Cn1c(CN2CCC(=Cc3ccnc(COc4ccc(Cl)cc4Cl)c3)CC2)nc2ccc(C(=O)O)cc21")
"> 7.30"
>>> result("CCn1cncc1Cn1c(CN2CCC(Cc3cnc(COc4ccc(Cl)cc4C)o3)CC2)nc2ccc(C(=O)O)cc21")
"> 7.30"
>>> result("Cc1ccc(Oc2cccc(C(=O)N3CCN(Cc4nc5ccc(C(=O)O)cc5n4C[C@@H]4CCO4)CC3)c2)c(Cl)c1")
"6.30 to 7.30"
>>> result("O=C(O)c1ccc2nc(CN3CCC(Oc4ccnc(COc5ccc(C(F)F)cc5F)n4)CC3)n(C[C@@H]3CCO3)c2c1")
"> 7.30"
>>> result("N#Cc1ccc(COc2cccc(C3CCN(C(=O)c4ccc(-c5nnn[nH]5)cn4)CC3)n2)c(F)c1")
"< 6.30"
>>> result("COc1ccc(Oc2cccc(C(=O)N3CCN(Cc4nc5ccc(C(=O)O)cc5n4C[C@@H]4CCO4)CC3)c2)cc1")
"< 6.30"
>>> result("C[C@H]1C[C@@H](Oc2ccnc(COc3ccc(C#N)cc3F)n2)CCN1Cc1nc2ccc(C(=O)O)cc2n1C[C@@H]1CCO1")
"> 7.30"

Go through the list and state pEC50 for each entry.
1. O=C(O)c1ccc2nc(CN3CCC(Oc4ccnc(COc5ccc(Cl)cc5F)c4)CC3)n(Cc3cnco3)c2c1
2. O=C(O)c1ccc2nc(CN3CCC(Cc4cccc(OCc5ccc(Cl)cc5Cl)n4)CC3)n(C[C@@H]3CCO3)c2c1
3. CCn1cncc1Cn1c(CN2CCN(C(=O)c3ccc(COc4ccc(Cl)cc4Cl)s3)CC2)nc2ccc(C(=O)O)cc21
4. O=C(O)c1ccc2nc(CN3CCC(Oc4ccnc(COc5ccc(Cl)cc5Cl)c4)CC3)n(Cc3ccno3)c2c1

Marked response:
["> 7.30", "> 7.30", "< 6.30", "> 7.30"]

I have 2 molecules here; please give me pEC50 for each one.
1. CCn1cncc1Cn1c(CN2CCC(Oc3cc(COc4ccc(Cl)cc4Cl)ccn3)CC2)nc2ccc(C(=O)O)cc21
2. N#Cc1ccc(OCc2cccc(OC3CCN(Cc4nc5c(F)cc(C(=O)O)cc5n4CC4(CF)CC4)CC3)c2)c(F)c1

Marked response:
1. > 7.30
2. > 7.30
